# targetDesc: proprotein convertase subtilisin/kexin type 9 (PCSK9) (human) (UniProt Q8NBP7)
# procedureText: PCSK9 biochemical disruption assay (BPS Biosciences Cat. #72010); antibody disrupts PCSK9 binding to LDL-R
Documented pIC50 across a set of binders
Units for pIC50: none; it is -log10 of a concentration expressed in mol/L.

binder	pIC50
Reference Antibody (antibody, V domains shown) VH: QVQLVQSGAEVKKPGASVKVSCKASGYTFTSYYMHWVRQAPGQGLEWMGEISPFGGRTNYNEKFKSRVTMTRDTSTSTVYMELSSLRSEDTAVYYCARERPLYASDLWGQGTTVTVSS VL: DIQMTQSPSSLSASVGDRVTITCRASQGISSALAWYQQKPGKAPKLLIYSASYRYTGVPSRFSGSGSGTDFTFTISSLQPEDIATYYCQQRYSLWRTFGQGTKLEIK	7.70

Which pIC50 is listed for AB-6 (antibody, V domains shown) VH: QVQLVQSGAEVKKPGASVKVSCKASGYTFTSYYMHWVRQAPGQGLEWMGEISPFGGTTNYNEKFKSRVTMTRDTSTSTVYMELSSLRSEDTAVYYCARERPLYSSDVWGQGTTVTVSS VL: DIQMTQSPSSLSASVGDRVTITCRASQGISSALAWYQQKPGKAPKLLIYSASYLYSGVPSRFSGSGSGTDFTFTISSLQPEDIATYYCQQRYSLWYTFGQGTKLEIK ? 7.78

What value of pIC50 has been reported for the following binder? AB-10 (antibody, V domains shown) VH: QVQLVQSGAEVKKPGASVKVSCKASGYTFTSYYMHWVRQAPGQGLEWMGEILPSGGRTNYNEKFKSRVTMTRDTSTSTVYMELSSLRSEDTAVYYCARERPLYAMDVWGQGTTVTVSS VL: DIQMTQSPSSLSASVGDRVTITCRASQGISSALAWYQQKPGKAPKLLIYSASYRYTGVPSRFSGSGSGTDFTFTISSLQPEDIATYYCQQRYSVALTFGQGTKLEIK 7.70
